Below is a list of entries, each paired with its recorded CYP 2C19 activity value.
# TARGET: CYP 2C19 (Homo sapiens, UniProt P33261)
# Construct: from tissue; host or cells: human liver microsomes
# Sequence (P33261 whole entry): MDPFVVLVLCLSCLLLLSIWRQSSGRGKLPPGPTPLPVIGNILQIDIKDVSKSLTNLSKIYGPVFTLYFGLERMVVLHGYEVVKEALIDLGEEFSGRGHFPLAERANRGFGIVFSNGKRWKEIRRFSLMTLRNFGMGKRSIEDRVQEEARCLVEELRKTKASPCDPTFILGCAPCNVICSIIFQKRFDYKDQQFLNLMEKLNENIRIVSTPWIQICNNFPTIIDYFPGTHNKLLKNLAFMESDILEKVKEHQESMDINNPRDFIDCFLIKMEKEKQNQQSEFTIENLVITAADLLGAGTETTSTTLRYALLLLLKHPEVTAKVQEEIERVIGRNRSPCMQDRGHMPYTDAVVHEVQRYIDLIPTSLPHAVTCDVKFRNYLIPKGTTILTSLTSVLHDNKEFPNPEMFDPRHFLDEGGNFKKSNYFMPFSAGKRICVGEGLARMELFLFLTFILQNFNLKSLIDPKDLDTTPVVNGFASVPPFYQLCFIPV
# METHOD DESCRIPTION: Inhibition of CYP activity in human liver microsomes, 2C19
# Assay type: in vitro ADME
# RUN PARAMETERS: 10 μM compound, human liver microsomes 0.25 mg/mL; % activity relative to the negative control
// units = %; emit number, no label

O=S(=O)(/C=C/c1cccc(Cl)n1)c1ccccc1Cl : 40.0
COc1ccccc1S(=O)(=O)/C=C/c1ccccc1Cl [VSC2, reference compound] : 16.8
O=S(=O)(/C=C/c1ncccc1Cl)c1ccccc1F : 47.3

Turning now to a further record.
Which CYP 2C19 activity value belongs to O=S(=O)(/C=C/c1ncccc1F)c1ccccc1F ?
65.9

* * *

# TARGET: CYP 3A4 (Homo sapiens)
# Construct: from tissue; host or cells: human liver microsomes
# Sequence (P08684 whole entry): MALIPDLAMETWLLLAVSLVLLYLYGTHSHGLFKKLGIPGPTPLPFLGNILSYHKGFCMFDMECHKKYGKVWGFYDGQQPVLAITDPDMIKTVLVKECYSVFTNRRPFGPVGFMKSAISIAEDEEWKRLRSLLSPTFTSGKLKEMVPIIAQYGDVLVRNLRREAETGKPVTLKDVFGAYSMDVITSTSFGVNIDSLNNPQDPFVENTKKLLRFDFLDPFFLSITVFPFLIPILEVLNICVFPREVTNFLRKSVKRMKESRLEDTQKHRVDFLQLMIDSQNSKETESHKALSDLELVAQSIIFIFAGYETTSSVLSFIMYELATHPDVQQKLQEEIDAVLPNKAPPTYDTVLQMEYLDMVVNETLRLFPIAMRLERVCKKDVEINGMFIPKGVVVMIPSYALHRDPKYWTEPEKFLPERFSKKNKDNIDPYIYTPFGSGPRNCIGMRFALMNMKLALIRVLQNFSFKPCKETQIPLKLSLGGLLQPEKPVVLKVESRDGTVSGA
# METHOD DESCRIPTION: Inhibition of CYP activity in human liver microsomes, 3A4
# Assay type: in vitro ADME
# RUN PARAMETERS: 10 μM compound, human liver microsomes 0.25 mg/mL; % activity relative to the negative control
PROPERTY: CYP 3A4 activity (%)
I only need the number, in %, no unit after it.

Past entries and their recorded results:
O=S(=O)(/C=C/c1ncccc1Cl)c1ccccc1F : 100.0
O=S(=O)(/C=C/c1ncccc1F)c1ccccc1F : 100.0
COc1ccccc1S(=O)(=O)/C=C/c1ccccc1Cl [VSC2, reference compound] : 55.6

Now let's try a different one.
For the compound O=S(=O)(/C=C/c1cccc(Cl)n1)c1ccccc1Cl , what CYP 3A4 activity is on record?
86.0

* * *

Each entry below lists one item and its recorded solubility value.
# METHOD DESCRIPTION: Solubility in water
# Type: physicochemical

Some solved entries appear below for comparison.
COc1ccccc1S(=O)(=O)/C=C/c1cccnc1Cl [Comparative Example 2, reference compound] : < 10 µg/mL
COc1ccccc1S(=O)(=O)/C=C/c1ccccc1Cl [VSC2, reference compound] : ≤ 10 µg/mL

Now examine the next entry.
// returns reported solubility for input Cl.O=S(=O)(/C=C/c1ncccc1F)c1ccc(OCCCN2CCOCC2)cc1
≥ 10000 µg/mL

* * *

# TARGET: CYP 2D6 (Homo sapiens, UniProt P10635)
# Construct: from tissue; host or cells: human liver microsomes
# Sequence (P10635 whole entry): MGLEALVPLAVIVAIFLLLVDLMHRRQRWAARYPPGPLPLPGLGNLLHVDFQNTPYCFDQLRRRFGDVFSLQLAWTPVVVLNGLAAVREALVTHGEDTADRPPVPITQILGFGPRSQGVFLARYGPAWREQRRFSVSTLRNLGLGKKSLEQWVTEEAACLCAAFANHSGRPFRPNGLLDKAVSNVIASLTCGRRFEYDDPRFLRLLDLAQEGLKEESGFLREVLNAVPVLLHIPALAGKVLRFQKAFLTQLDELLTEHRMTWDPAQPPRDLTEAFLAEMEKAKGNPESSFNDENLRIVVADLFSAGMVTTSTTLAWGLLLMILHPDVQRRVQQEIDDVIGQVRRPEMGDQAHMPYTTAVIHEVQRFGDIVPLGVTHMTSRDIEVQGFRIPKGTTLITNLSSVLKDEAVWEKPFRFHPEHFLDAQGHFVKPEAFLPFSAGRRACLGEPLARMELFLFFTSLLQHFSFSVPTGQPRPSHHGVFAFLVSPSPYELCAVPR
# METHOD DESCRIPTION: Inhibition of CYP activity in human liver microsomes, 2D6
# Format: in vitro ADME
# RUN PARAMETERS: 10 μM compound, human liver microsomes 0.25 mg/mL; % activity relative to the negative control
PROPERTY: CYP 2D6 activity (%)
Report only the number, with the unit % understood.

As a guide, the following entries are already answered.
O=S(=O)(/C=C/c1ncccc1Cl)c1ccccc1F : 86.0
O=S(=O)(/C=C/c1ncccc1F)c1ccccc1F : 87.0
O=S(=O)(/C=C/c1cccc(Cl)n1)c1ccccc1Cl : 100.0

What value of measured CYP 2D6 activity is listed for COc1ccccc1S(=O)(=O)/C=C/c1ccccc1Cl [VSC2, reference compound] ?
54.9

* * *

Item-by-item account of CYP 2C9 activity
# TARGET: CYP 2C9 (Homo sapiens, UniProt P11712)
# Construct: from tissue; host or cells: human liver microsomes
# Sequence (P11712 whole entry): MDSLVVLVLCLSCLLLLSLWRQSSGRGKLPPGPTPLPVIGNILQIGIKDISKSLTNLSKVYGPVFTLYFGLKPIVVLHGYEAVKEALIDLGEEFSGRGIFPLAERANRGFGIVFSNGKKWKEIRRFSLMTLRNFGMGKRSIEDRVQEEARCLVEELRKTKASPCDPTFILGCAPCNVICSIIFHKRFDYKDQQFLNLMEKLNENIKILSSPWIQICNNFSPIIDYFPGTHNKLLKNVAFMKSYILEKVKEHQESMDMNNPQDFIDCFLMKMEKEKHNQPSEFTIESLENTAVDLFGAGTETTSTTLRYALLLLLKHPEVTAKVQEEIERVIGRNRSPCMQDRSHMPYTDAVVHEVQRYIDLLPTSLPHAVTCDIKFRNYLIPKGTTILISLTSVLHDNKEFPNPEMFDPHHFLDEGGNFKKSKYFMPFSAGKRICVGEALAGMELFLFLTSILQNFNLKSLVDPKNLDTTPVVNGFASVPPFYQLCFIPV
# METHOD DESCRIPTION: Inhibition of CYP activity in human liver microsomes, 2C9
# Type: in vitro ADME
# RUN PARAMETERS: 10 μM compound, human liver microsomes 0.25 mg/mL; % activity relative to the negative control
Express the result in % but write the number alone.

# annotated cases, reported CYP 2C9 activity shown
O=S(=O)(/C=C/c1ncccc1F)c1ccccc1F [Compound 1] : 100.0
COc1ccccc1S(=O)(=O)/C=C/c1ccccc1Cl [VSC2, reference compound] : 100.0
CN1CCN(C(=O)COc2ccc(S(=O)(=O)/C=C/c3ncccc3F)cc2)CC1.Cl [Compound 17] : 122.0
O=S(=O)(/C=C/c1cccc(Cl)n1)c1ccccc1Cl [Compound 13] : 100.0

Request the reported CYP 2C9 activity associated with O=S(=O)(/C=C/c1ncccc1Cl)c1ccccc1F [Compound 4]
62.6
